Numbers sourced from patent US20260167714A1.

target: T1, recombinant human ILT4 (LILRB2) (human, UniProt Q8N423 22-460); assay: SPR, high resolution kinetics, triplicate, LALA antibody
T1 construct: Bought protein (Acro Biosystems or R&D Systems); also called ILTR4
T1 sequence (Q8N423 other isoform, or with tags, fused parts or gaps limits assumed): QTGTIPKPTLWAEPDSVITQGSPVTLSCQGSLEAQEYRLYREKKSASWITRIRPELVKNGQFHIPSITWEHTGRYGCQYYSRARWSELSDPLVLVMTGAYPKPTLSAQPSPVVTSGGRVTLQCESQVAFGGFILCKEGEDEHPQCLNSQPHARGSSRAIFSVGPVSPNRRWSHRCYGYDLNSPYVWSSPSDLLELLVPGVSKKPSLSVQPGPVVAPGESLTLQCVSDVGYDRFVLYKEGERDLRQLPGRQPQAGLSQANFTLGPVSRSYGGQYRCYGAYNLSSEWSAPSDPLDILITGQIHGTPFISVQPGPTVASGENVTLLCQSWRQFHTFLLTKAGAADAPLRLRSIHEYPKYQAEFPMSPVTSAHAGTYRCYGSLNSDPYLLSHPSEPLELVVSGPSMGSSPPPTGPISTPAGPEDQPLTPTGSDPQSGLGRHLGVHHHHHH
RESULT TYPE: Kd (pM)
Answer with a number only, understood to be in pM.

get_value(item= Hz77-LALA (antibody, human IgG1, kappa, L234A L235A, V domains shown, Humanized L77S2, human IgG1 L234A/L235A, kappa; also called Humanized 77_01; Hz 77 01) VH: QVQLVQSGAEVKKPGSSVKVSCKASGYSFTGYSVNWVRQAPGQGLEWIGRINPYNGDIFNNQKFKGRATITVDKSTSTAYMELSSLRSEDTAVYYCARGTTVGGAWFAYWGQGTLVTVSS VL: DIVMTQSPDSLAVSLGERATINCRASESVDSYGYSFLHWYQQKPGQPPKLLIYLASNLESGIPDRFSGSGSGTDFTLTISSLQAEDVAVYYCQQSNEDLMYTFGGGTKVEIKR , readout=Kd) returns 8.9
